Origin of measurements: patent US20240383875A1

Record set of IC50 for target or system SIK3 (Homo sapiens).
The figure you give is taken to be in µM; do not add the unit.

Reference set (6 entries):
# query: IC50 of entry Cc1cc(C#N)nn1-c1nc(-n2cnc3cc(NC4CCN(C)C(=O)C4)ccc32)ccc1C(C)O (stereo not shown)
0.0265

Consider next the molecule Cc1cc(C#N)nn1-c1nc(-n2cnc3ccc(-c4ccc5c(n4)C(=O)N(C)C5)cc32)ccc1C(C)O (stereo not shown) in the same way.
0.446

Consider next the molecule Cc1ccc(-c2ccc3ncn(-c4ccc(C(C)O)c(-n5nc(C#N)cc5C)n4)c3c2)nn1 (stereo not shown) in the same way.
0.301

Consider next the molecule COC(=N)c1cc(C)n(-c2nc(-n3cnc4cc(Nc5ccc(C)nn5)ccc43)ccc2[C@H](C)O)n1 in the same way.
0.0018

Consider next the molecule CCC(O)c1ccc(-n2cnc3cc(OC)c(OC)cc32)nc1-c1ccc(F)cc1OC (stereo not shown) in the same way.
2.88

Consider next the molecule Cc1ccc(Nc2ccc3ncn(-c4ccc([C@H](C)O)c(-n5nc(C#N)cc5C)n4)c3c2)nn1 in the same way.
0.149

In the following, a different molecule is considered.
# query: IC50 of entry Cc1ccc(Nc2ccc3c(c2)ncn3-c2ccc(C(C)O)c(-c3cc(C#N)nn3C)n2)nn1 (stereo not shown)
0.0304
